Target: JAK3 (Homo sapiens, UniProt P52333)
Construct: made in house; host or cells: SF9 insect cells (baculovirus)
Sequence (P52333 783-1124): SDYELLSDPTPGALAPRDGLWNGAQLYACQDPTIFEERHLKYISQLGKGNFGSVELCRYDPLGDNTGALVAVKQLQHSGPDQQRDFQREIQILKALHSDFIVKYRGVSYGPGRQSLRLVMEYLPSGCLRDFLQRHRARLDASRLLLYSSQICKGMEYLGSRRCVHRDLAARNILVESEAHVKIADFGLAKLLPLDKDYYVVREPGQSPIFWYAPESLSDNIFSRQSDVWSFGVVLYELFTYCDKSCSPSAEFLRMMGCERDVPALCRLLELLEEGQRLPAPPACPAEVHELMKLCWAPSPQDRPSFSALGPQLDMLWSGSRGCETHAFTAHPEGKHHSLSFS
Assay: JAK3 inhibition (Table 4)
Format: biochemical
Settings: read-out: JAK3 Ki
pKi: −log10 of the molar value.
MEASURED_PROPERTY: pKi

Worked set:
- MOLECULE: "Cc1cc(CN2CCC(n3c(C(C)O)nc4cnc5[nH]ccc5c43)C(F)C2)no1 (centres unmarked)"
  EXPERIMENTAL_TARGET: "JAK3 (Homo sapiens, UniProt P52333)"
  MEASURED_PROPERTY: "pKi"
  TEST_RESULT: 8.24
- MOLECULE: "N#CC1CCN([C@H]2CC[C@H](n3c(CO)nc4cnc5[nH]ccc5c43)CC2)CC1"
  EXPERIMENTAL_TARGET: "JAK3 (Homo sapiens, UniProt P52333)"
  MEASURED_PROPERTY: "pKi"
  TEST_RESULT: 6.50
- MOLECULE: "Cc1nc2cnc3[nH]ccc3c2n1C1CN2CCC1CC2 (centres unmarked)"
  EXPERIMENTAL_TARGET: "JAK3 (Homo sapiens, UniProt P52333)"
  MEASURED_PROPERTY: "pKi"
  TEST_RESULT: 6.35

(1) OC1CCCC(n2cnc3cnc4[nH]ccc4c32)C1 (single isomer, unassigned) [Example 562]
(2) c1cnc(N2CCC(n3cnc4cnc5[nH]ccc5c43)CC2)cn1
Select the item with the higher value of pKi from the options 1 and 2 listed. // caller expects the label of the chosen entry
1

Ref: patent US8461328B2
